Where do these numbers come from? They come from the RNAGym collection of RNA variant scans (doi:10.7554/elife.80360).

For each of the variants below, state its self-cleavage.
B1: HDV Ribozyme (parent)
chain: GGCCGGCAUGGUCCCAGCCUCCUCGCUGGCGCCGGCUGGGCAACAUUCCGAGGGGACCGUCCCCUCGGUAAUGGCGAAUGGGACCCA

Variants of: B1
Test: self-cleavage, relative activity (ratio to wild type); higher = more cleavage; co-transcriptional
Provide a numeric answer; units are not to be included.

Ask: Return the recorded self-cleavage value; entry: "GGCCGGCAUGGUCCCAGCCUCCUCGCUGGCGCCGGCUGGGCAACAUUCCGAGGGGACCGUCCCCCCGGUAAGGGCGAAUGGGACCCA"
Reply: 0.831

Ask: Return the recorded self-cleavage value; entry: "GGCCGGCAUGGUCCCAGCCUCCUCGCUGGCGCCGGCUGGGCAACAUUCCGAGGGGACUGUCCCCUCGGUAAUGGUGAAUGGGACCCA"
Reply: 0.302

Ask: Return the recorded self-cleavage value; entry: "GGCCGGCAUGGUCCCAGCCUCCUCGCUGGCGCCGGCUGGGCAACAUUCCGAGGGGACCGUCCGCUCGGUAAUGGCGACUGGGACCCA"
Reply: 0.101

Ask: Return the recorded self-cleavage value; entry: "GGCCGGCAUGGUCCCAGCCUCCUCGCUGGCGCCGGCUGGGCAACAUUCCGAGGGGACCGUCCCCUCGGUUAUGGCGAAUGGGAUCCA"
Reply: 0.627
